All figures here come from PubChem BioAssay (Tox21).

# experimental_details: qHTS assay to test for compound auto fluorescence at 460 nm (blue) in HepG2 cell free culture (AID 720685); note: % is set by controls: 0 for no effect and ±100 for the full control effect
# experimental_conditions: Cell-free culture medium, blue autofluorescence 405/460 nm; series mostly up to 91.3 µM
Active and inactive are the calls of the source. Calls come from the whole dose curve; as a rule, active = well fitted curve in the direction sought with a large enough effect in the repeat runs; inconclusive = weak or mixed curves; inactive = flat fitted curve, though single readings scatter.
metric: fluorescence, % of fluorescent control

compound | metric | reported
COCCCOc1cc(C[C@@H](C[C@H](N)[C@@H](O)C[C@H](C(=O)NCC(C)(C)C(N)=O)C(C)C)C(C)C)ccc1OC | fluorescence, % of fluorescent control | inactive
Nc1ccc(C(=O)NCC(=O)O)cc1 | fluorescence, % of fluorescent control | -0.124% [at 18.6 µM] (inactive)
C[C@]12C=CC(=O)C=C1[C@@H](F)C[C@@H]1[C@@H]2[C@@H](O)C[C@@]2(C)[C@H]1CC[C@]2(O)C(=O)CO | fluorescence, % of fluorescent control | inactive
COc1ccc(Cl)cc1C | fluorescence, % of fluorescent control | inactive
CC(O)CCCCn1c(=O)c2c(ncn2C)n(C)c1=O (stereo not drawn) | fluorescence, % of fluorescent control | inactive
O=C1c2ccccc2C(=O)N1CO | fluorescence, % of fluorescent control | inactive
COc1cc(NS(=O)(=O)c2ccc(N)cc2)ncn1 | fluorescence, % of fluorescent control | 0.0187% [at 18.6 µM] (inactive)
Cc1cc(C)c(C)c(C)c1 | fluorescence, % of fluorescent control | inactive
C/C=C/C(=O)CCCC | fluorescence, % of fluorescent control | inactive
CC/C=C\CCCCCCCCCCOC(C)=O | fluorescence, % of fluorescent control | inactive
C[C@@H](CN1CC(=O)NC(=O)C1)N1CC(=O)NC(=O)C1 | fluorescence, % of fluorescent control | inactive
NCC1CCC(C(=O)Oc2ccc(CCC(=O)O)cc2)CC1 (stereo not drawn) | fluorescence, % of fluorescent control | inactive
CCO[Si](CC(C)C)(OCC)OCC | fluorescence, % of fluorescent control | inactive
